target: T1, human soluble αvβ5 protein (extracellular domains of human αv and β5 integrin subunits) (human, UniProt P06756 31-992; P18084 24-719); assay: ELISA, biotin-αvβ5 on streptavidin plate, unpurified antibody
T1 construct: also called biotin-αvβ5; hsαvβ5
T1 sequence (P06756 31-992 limits assumed, chain 1 of 2): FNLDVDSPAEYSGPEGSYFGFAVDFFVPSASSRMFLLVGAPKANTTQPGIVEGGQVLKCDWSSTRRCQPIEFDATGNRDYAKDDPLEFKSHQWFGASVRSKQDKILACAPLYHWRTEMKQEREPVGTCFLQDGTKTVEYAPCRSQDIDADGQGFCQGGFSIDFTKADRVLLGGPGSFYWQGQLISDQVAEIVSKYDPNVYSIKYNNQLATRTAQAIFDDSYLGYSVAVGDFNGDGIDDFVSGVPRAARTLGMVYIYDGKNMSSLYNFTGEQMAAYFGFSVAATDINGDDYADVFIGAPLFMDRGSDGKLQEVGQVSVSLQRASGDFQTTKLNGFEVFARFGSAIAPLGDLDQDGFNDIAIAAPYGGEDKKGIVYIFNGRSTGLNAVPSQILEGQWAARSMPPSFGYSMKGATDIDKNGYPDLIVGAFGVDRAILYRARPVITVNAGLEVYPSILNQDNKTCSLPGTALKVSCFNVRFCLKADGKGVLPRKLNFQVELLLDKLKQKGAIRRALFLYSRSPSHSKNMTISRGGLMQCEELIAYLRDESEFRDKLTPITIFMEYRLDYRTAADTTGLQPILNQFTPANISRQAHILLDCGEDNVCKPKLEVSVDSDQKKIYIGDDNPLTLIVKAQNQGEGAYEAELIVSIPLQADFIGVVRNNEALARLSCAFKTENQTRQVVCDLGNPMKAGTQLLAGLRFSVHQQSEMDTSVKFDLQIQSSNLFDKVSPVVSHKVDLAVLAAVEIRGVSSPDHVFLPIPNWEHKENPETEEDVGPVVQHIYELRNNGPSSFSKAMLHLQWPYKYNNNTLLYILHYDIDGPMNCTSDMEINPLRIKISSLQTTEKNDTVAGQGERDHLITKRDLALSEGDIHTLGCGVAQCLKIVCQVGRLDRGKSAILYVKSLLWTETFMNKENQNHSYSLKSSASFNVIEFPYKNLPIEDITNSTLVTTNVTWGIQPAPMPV
T1 sequence (P18084 24-719 limits assumed, chain 2 of 2): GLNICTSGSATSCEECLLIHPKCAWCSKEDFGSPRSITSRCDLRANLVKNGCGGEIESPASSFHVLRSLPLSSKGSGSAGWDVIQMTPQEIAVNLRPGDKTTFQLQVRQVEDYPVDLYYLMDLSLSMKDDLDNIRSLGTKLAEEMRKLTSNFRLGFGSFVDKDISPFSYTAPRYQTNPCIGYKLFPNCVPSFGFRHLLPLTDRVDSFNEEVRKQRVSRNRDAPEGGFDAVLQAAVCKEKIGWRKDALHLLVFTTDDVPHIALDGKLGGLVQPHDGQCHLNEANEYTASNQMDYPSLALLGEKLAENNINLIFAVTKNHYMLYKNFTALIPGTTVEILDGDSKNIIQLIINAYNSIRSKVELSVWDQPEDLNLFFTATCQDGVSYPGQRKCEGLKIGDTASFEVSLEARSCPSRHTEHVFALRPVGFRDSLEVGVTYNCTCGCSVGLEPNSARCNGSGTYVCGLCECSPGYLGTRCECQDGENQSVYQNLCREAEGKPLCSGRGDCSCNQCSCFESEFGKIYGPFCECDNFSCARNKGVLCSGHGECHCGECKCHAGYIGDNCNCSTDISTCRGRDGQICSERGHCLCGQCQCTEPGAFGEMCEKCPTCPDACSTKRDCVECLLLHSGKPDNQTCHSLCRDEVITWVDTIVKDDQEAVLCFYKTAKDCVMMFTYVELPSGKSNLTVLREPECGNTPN
Consider the following binders; for each one, report its EC50.
// return numeric value only (unit: nM, not printed)

Task: # EC50 lookup, item VH3/VL2 Agly-hIgG1(T299A) (antibody, V domains shown, also called H3/L2) VH: EVQVVESGGGLVKPGGSLRLSCKASGYTFTSYWMHWVKQAPGKGLEWVGAIYPGNSDTSYNQKFKGKFTLSAVTSSNTAYLQMNSLKTEDTAVYYCTTTTYGYDWFAYWGQGTLVTVSS VL: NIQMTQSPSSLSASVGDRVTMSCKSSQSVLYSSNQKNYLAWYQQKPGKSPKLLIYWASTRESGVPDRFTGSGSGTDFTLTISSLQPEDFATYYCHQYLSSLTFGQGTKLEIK
Result: 0.7

Task: Try this binder too: VH1/VL3 Agly-hIgG1(T299A) (antibody, V domains shown, also called H1/L3) VH: EVQVVESGGGLVKPGGSLRLSCAASGYTFTSYWMHWVRQAPGKGLEWVGAIYPGNSDTSYNQKFKGRFTISADTSKNTLYLQMNSLKTEDTAVYYCTTTTYGYDWFAYWGQGTLVTVSS VL: DIQMTQSPSSLTVSVGDRVTMSCKSSQSVLYSSNQKNYLAWYQQKPGKSPKLLIYWASTRESGVPDRFTGSGSGTDFTLTISSVQPEDFATYYCHQYLSSLTFGAGTKLEIK
Result: 2.9

Task: Try this binder too: VH0/VL0 Agly-hIgG1(T299A) (antibody, V domains shown, also called H0/L0) VH: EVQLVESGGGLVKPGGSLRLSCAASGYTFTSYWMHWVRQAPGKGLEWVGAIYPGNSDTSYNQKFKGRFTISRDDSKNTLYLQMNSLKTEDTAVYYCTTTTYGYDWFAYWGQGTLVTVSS VL: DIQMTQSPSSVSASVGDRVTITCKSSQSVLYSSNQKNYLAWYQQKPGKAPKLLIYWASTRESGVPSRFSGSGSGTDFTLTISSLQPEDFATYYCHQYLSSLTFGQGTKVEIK
Result: 1.2
